ASSAYED SYSTEM: RNA polymerase core enzyme;sigma32 R268A (E. coli;E. coli, UniProt P0A7Z4;P0A8V2;P0A8T7;P0A800;P0AGB3 1-329;1-1342;1-1407;1-91;1-284, |R268A)
PROTOCOL SUMMARY: fluorescence polarization; apparent Kd; FP: 10 mM Tris-HCl pH 7.7, 100 mM NaCl, 1 mM DTT, 1% glycerol, 0.025% Tween-20, 5 nM DNA, 10-320 nM holoenzyme, room temperature, 5 min; stopped-flow: 10 mM Tris-HCl pH 7.7, 20 mM NaCl, 10 mM MgCl2, 1 mM DTT
CONDITION DESCRIPTION: protein: recombinant;recombinant; tags: ;His tag (pET28a, Ni-NTA); chain copies: 2;1;1;1;1; blunt
PROPERTY NAME: Kd (nM)
Give bare numbers, in nM.

So what's the measured Kd for this one? short -35 element DNA (dsDNA) DNA 1: CCTTGAAGACGTGG DNA 2: CCACGTCTTCAAGG 46.7
